Molecular target: hP2X2/3H (Homo sapiens, UniProt P56373+Q9UBL9)
Construct: expressed in transfected cells; host or cells: e.g. HEK293 or 1321N1
Sequence (Q9UBL9 1-471): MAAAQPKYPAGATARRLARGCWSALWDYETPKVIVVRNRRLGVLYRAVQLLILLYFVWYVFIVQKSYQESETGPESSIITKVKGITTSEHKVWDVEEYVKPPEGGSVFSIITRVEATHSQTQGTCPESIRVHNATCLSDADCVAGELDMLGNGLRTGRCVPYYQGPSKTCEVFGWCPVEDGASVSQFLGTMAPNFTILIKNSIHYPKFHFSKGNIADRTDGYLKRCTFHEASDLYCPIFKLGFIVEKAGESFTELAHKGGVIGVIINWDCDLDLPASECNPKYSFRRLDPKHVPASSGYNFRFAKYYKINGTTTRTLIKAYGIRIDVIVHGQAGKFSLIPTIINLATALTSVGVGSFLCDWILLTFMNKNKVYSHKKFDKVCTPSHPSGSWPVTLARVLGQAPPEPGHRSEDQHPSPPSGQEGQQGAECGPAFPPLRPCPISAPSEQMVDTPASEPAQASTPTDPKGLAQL
Sequence (P56373 1-397): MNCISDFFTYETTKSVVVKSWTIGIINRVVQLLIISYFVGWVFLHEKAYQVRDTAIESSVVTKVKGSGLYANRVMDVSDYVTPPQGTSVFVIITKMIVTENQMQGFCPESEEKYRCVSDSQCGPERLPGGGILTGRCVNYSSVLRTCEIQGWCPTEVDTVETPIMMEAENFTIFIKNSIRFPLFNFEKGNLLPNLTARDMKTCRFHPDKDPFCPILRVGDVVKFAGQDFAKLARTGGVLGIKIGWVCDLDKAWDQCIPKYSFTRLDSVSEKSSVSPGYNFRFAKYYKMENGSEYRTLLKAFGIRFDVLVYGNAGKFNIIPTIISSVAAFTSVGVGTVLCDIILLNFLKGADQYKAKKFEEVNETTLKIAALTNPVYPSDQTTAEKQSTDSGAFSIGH
Assay: Calcium uptake assay (P2X antagonist assay), P2X2/3 heteromer
Format: cell-based
Details: calcium uptake assay, hP2X2/3H; read-out: IC50 hP2X2/3H (nM), Ca Influx
value_type: IC50

Worked examples, 9 molecules total:
>  <molecule>
Cc1ccc(-c2cc(C(=O)NCc3ccc4c(c3)S(=O)(=O)CC4)cc(C(=O)N3CCCC3)c2)cc1

>  <IC50>
< 100 nM

$$$$
>  <molecule>
Cc1ccc(-c2cc(C(=O)NC(C)c3csc(C)n3)cc(C(=O)N3CCCC3)c2)cc1 (stereo not shown)

>  <IC50>
100 to 500 nM

$$$$
>  <molecule>
COc1ncc([C@@H](C)NC(=O)c2cc(C(=O)N3CCC3)cc(-c3ccc(C)cc3)c2)cn1

>  <IC50>
< 100 nM

$$$$
>  <molecule>
Cc1ccc(-c2cc(C(=O)N[C@H](C)c3cnc(C)nc3)cc(S(=O)(=O)CC(C)C)c2)cc1

>  <IC50>
< 100 nM

$$$$
>  <molecule>
Cc1ccc(-c2cc(C(=O)NCc3ccc(C)nc3)cc(C(=O)N(C)c3ccncc3)c2)cc1

>  <IC50>
100 to 500 nM

$$$$
>  <molecule>
Cc1ccc(-c2cc(S(=O)(=O)N3CCCC3)cc(C(=O)NCc3cnc(C)nc3)c2C)cc1

>  <IC50>
> 1000 nM

$$$$
>  <molecule>
Cc1ccc(-c2cc(C(=O)N[C@H](C)c3ccc(C(F)(F)F)nc3)cc(C(=O)N3CCCC3)c2)cc1

>  <IC50>
< 100 nM

$$$$
>  <molecule>
Cc1ccc(-c2cc(S(=O)(=O)N3CCCC3)cc(C(=O)N[C@H](C)c3cnc(C)nc3)c2C)cc1

>  <IC50>
> 1000 nM

$$$$
>  <molecule>
Cc1ccc(-c2cc(C(=O)O)cc(C(=O)N[C@@H](C)CO)c2)cc1

>  <IC50>
> 1000 nM

$$$$

Please turn your attention to the following entry.
Exercise: Notebook entry, hP2X2/3H (Homo sapiens, UniProt P56373+Q9UBL9) assay: IC50 of `Cc1ccc(-c2cc(C(=O)NCc3ccc(C)nc3)cc(C(=O)N3CC[C@@H](N)C3)c2)cc1` = ?
Solution: 501 to 1000 nM

* * *

// IC50 lookup, one value per entry
target: hP2X3 (Homo sapiens, UniProt P56373); construct: expressed in transfected cells; host or cells: e.g. HEK293 or 1321N1; test: Calcium uptake assay (P2X antagonist assay), P2X3 homomer; assay type: cell-based; conditions: calcium uptake assay, hP2X3; read-out: IC50 hP2X3 (nM), Ca Influx

>  <compound>
COc1ccc(CNC(=O)c2cc(C(=O)N3CCCC3)cc(-c3ccc(C)cc3)c2)cn1

>  <IC50>
< 100 nM

$$$$
>  <compound>
Cc1ccc(-c2cc(C(=O)N[C@H](C)c3cnc(C)nc3)cc(C(=O)N(C)CC(C)C)c2)cc1

>  <IC50>
< 100 nM

$$$$
>  <compound>
Cc1ccc(-c2cc(C(=O)NC(C)c3ccc(C)nc3)cc(C(=O)N3CCCC3)c2)cc1 (stereo not shown)

>  <IC50>
< 100 nM

$$$$
>  <compound>
Cc1ccc(-c2cc(C(=O)NCc3ccc(C)c(S(C)(=O)=O)c3)cc(C(=O)N3CCCC3)c2)cc1

>  <IC50>
< 100 nM

$$$$
>  <compound>
Cc1ccc(-c2cc(C(=O)N[C@H](C)c3cnc(C)c(Cl)c3)cc(S(C)(=O)=O)c2)cc1

>  <IC50>
100 to 500 nM

$$$$

Exercise: Consider the compound shown here: `CCCS(=O)(=O)c1cc(C(=O)N[C@@H](C)CN2CCOCC2)cc(-c2ccc(C)cc2)c1` What is its recorded IC50?
Solution: < 100 nM

Exercise: Queued: `Cc1ccc(-c2cc(C(=O)NCc3ccc(C)nc3)cc(C(=O)N(C)CC3CCNCC3)c2)cc1`
Solution: 100 to 500 nM

Exercise: Same read-out for `Cc1ccc(-c2cc(C(=O)N[C@H](CO)c3ccc(C(F)(F)F)nc3)cc(C(=O)N3CCCC3)c2)cc1` ?
Solution: < 100 nM

Exercise: Next: `Cc1ccc(-c2cc(C#N)cc(C(=O)NCc3ccc(C)nc3)c2)nc1`
Solution: 100 to 500 nM

Exercise: What do you have for Cc1ccc(-c2cc(C(=O)N[C@H](C)c3cnc(C)nc3)cc(C(=O)N3CCN4CCCC4C3)c2)cc1 (stereo partly shown) ?
Solution: < 100 nM

Exercise: Another compound: `Cc1ccc(-c2cc(C(=O)N[C@H](C)c3cnc(C)nc3)cc(C(=O)N3CC(O)C3)c2)cc1`
Solution: < 100 nM

Exercise: Now try `Cc1ccc(-c2cc(C(=O)N[C@H](C)c3cnc(C)nc3)cc(C(=O)N3CCCC3)c2)nc1` .
Solution: < 100 nM

Exercise: Next record, please: `Cc1ccc(-c2cc(C(=O)NCc3ccc(C)nc3)cc(C(=O)N3CCOc4ccccc43)c2)cc1`
Solution: 100 to 500 nM

* * *

Biological target: hP2X2/3H (Homo sapiens, UniProt P56373+Q9UBL9)
Construct: expressed in transfected cells; host or cells: e.g. HEK293 or 1321N1
Sequence (Q9UBL9 1-471): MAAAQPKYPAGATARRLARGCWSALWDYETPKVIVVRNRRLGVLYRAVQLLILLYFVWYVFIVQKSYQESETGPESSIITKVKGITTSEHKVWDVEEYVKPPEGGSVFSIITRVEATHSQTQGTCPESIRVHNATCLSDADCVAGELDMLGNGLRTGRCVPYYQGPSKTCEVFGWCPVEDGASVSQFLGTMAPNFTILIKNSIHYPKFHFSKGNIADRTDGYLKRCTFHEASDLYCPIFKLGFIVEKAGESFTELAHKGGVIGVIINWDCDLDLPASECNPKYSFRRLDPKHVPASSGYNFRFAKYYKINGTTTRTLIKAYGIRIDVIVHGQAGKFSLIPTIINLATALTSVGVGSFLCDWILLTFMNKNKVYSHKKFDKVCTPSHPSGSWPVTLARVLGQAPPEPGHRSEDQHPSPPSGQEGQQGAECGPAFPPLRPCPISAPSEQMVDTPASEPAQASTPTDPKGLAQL
Sequence (P56373 1-397): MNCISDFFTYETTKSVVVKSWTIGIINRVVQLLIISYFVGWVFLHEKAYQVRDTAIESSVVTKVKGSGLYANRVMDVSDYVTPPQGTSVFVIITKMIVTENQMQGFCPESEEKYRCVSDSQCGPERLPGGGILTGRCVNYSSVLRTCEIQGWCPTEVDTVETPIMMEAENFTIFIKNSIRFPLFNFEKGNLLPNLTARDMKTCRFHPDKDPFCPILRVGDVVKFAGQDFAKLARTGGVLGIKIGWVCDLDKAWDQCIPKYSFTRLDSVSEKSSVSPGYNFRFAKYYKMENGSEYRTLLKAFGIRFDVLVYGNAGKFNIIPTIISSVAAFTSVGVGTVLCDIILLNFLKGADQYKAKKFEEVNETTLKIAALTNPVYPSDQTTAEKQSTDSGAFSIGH
Test: Calcium uptake assay (P2X antagonist assay), P2X2/3 heteromer
Type: cell-based
Conditions: calcium uptake assay, hP2X2/3H; read-out: IC50 hP2X2/3H (nM), Ca Influx
value_type: IC50

>  <molecule>
Cc1ccc(-c2cc(C(=O)NC(C)c3cnccn3)cc(C(=O)N(C)CC(C)C)c2)cc1 (stereo not shown)

>  <IC50>
100 to 500 nM

$$$$
>  <molecule>
Cc1ccc(-c2cc(C(=O)NCc3ccc(C)nc3)cc(C(=O)N(C)Cc3ccncc3)c2)cc1

>  <IC50>
< 100 nM

$$$$
>  <molecule>
Cc1ccc(-c2cc(C(=O)NCc3ccc(C)nc3)cc(S(C)(=O)=O)c2)nc1

>  <IC50>
100 to 500 nM

$$$$

Please look at the following molecule next.
Exercise: Return reported IC50; argument: `Cc1ncc(CNC(=O)c2cc(C(=O)N3CCCC3)cc(-c3ccc(Cl)cc3)c2)cn1`
Solution: 100 to 500 nM
